// pKd lookup, one value per entry
SYSTEM_UNDER_TEST: T1, DLL3 (target ligand immobilized on a SA sensor chip via streptavidin capture) (Homo sapiens (Human), UniProt Q9NYJ7 27-492, limits assumed)
T1 sequence: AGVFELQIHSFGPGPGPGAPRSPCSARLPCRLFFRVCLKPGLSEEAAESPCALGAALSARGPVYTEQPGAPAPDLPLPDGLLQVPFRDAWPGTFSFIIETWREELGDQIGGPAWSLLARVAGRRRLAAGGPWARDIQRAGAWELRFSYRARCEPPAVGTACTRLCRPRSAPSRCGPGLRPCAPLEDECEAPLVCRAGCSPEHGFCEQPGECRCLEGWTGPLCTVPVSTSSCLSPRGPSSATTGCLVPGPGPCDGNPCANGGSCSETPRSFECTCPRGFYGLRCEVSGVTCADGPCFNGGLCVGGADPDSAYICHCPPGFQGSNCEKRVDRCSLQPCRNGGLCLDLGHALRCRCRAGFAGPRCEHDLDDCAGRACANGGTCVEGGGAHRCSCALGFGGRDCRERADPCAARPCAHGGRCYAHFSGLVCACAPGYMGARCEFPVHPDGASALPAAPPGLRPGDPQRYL
PROCEDURE_SUMMARY: SPR, Biacore S200, target ligand on SA chip, 25 C, 1:1 fit
Bridges are numbered along the chain shown (N, C = ends). [ ]: non-standard residue; d: D form.
Value format note: pKd is -log10 of concentration (mol/L); just state the number.

>>> measurement("Ac-[dA]WTICNNWHDCWP-NH2 (disulfide 5-11; SMILES CC[C@H](C)[C@H](NC(=O)[C@@H](NC(=O)[C@H](Cc1c[nH]c2ccccc12)NC(=O)[C@@H](C)NC(C)=O)[C@@H](C)O)C(=O)N[C@H]1CSSC[C@@H](C(=O)N[C@@H](Cc2c[nH]c3ccccc23)C(=O)N2CCC[C@H]2C(N)=O)NC(=O)[C@H](CC(=O)O)NC(=O)[C@H](Cc2c[nH]cn2)NC(=O)[C@H](Cc2c[nH]c3ccccc23)NC(=O)[C@H](CC(N)=O)NC(=O)[C@H](CC(N)=O)NC1=O) [SEQ ID NO 81]")
8.19
>>> measurement("Ac-MVWVPCEWDDCFY-NH2 (disulfide 6-11; SMILES CSCC[C@H](NC(C)=O)C(=O)N[C@H](C(=O)N[C@@H](Cc1c[nH]c2ccccc12)C(=O)N[C@H](C(=O)N1CCC[C@H]1C(=O)N[C@H]1CSSC[C@@H](C(=O)N[C@@H](Cc2ccccc2)C(=O)N[C@@H](Cc2ccc(O)cc2)C(N)=O)NC(=O)[C@H](CC(=O)O)NC(=O)[C@H](CC(=O)O)NC(=O)[C@H](Cc2c[nH]c3ccccc23)NC(=O)[C@H](CCC(=O)O)NC1=O)C(C)C)C(C)C) [SEQ ID NO 78]")
7.17
>>> measurement("Ac-MWVLCEWHECWPG-NH2 (disulfide 5-10; SMILES CSCC[C@H](NC(C)=O)C(=O)N[C@@H](Cc1c[nH]c2ccccc12)C(=O)N[C@H](C(=O)N[C@@H](CC(C)C)C(=O)N[C@H]1CSSC[C@@H](C(=O)N[C@@H](Cc2c[nH]c3ccccc23)C(=O)N2CCC[C@H]2C(=O)NCC(N)=O)NC(=O)[C@H](CCC(=O)O)NC(=O)[C@H](Cc2c[nH]cn2)NC(=O)[C@H](Cc2c[nH]c3ccccc23)NC(=O)[C@H](CCC(=O)O)NC1=O)C(C)C) [SEQ ID NO 75]")
7.24

Prompt line: Entry Ac-MWTICANWHDCWP-NH2 (disulfide 5-11; SMILES CC[C@H](C)[C@H](NC(=O)[C@@H](NC(=O)[C@H](Cc1c[nH]c2ccccc12)NC(=O)[C@H](CCSC)NC(C)=O)[C@@H](C)O)C(=O)N[C@H]1CSSC[C@@H](C(=O)N[C@@H](Cc2c[nH]c3ccccc23)C(=O)N2CCC[C@H]2C(N)=O)NC(=O)[C@H](CC(=O)O)NC(=O)[C@H](Cc2c[nH]cn2)NC(=O)[C@H](Cc2c[nH]c3ccccc23)NC(=O)[C@H](CC(N)=O)NC(=O)[C@H](C)NC1=O) [SEQ ID NO 89] : reported pKd = ?
Response line: 8.09

// data source = patent US20250049970A1
